System: glucocorticoid receptor
PROTOCOL: One or more of the above assays (GR binding and GR cell assays; not specified which)
Format: cell-based
CONDITION_LABEL: in one or more of the above assays
MEASURE: activity as agonists of the glucocorticoid receptor function

Below, 8 compounds whose answers are already recorded.
[
  {
    "COMPOUND": "CC(C)(CC(O)(Cc1ccc(C#N)cc1Cl)C(F)(F)F)c1ccc(F)cc1O (stereo not drawn)",
    "REPORTED_MEASUREMENT": "activity as agonists"
  },
  {
    "COMPOUND": "CC(C)(CC(O)(Cc1ccc(C#N)cc1Cl)C(F)(F)F)c1cccc2c1OCC2 (stereo not drawn)",
    "REPORTED_MEASUREMENT": "activity as agonists"
  },
  {
    "COMPOUND": "COc1ccc(F)cc1C(C)(C)CC(O)(Cc1ccc(C#N)c2ccccc12)C(F)(F)F (stereo not drawn)",
    "REPORTED_MEASUREMENT": "activity as agonists"
  },
  {
    "COMPOUND": "Cc1ccc(F)cc1C(C)(C)CC(O)(Cc1ccc(C#N)cc1Cl)C(F)(F)F (stereo not drawn)",
    "REPORTED_MEASUREMENT": "activity as agonists"
  },
  {
    "COMPOUND": "COc1ccc(F)cc1C(C)(C)CC(O)(Cc1ccc(C#N)cc1Cl)C(F)(F)F (stereo not drawn)",
    "REPORTED_MEASUREMENT": "activity as agonists"
  },
  {
    "COMPOUND": "COc1ccc(F)cc1C(C)(C)CC(O)(Cc1cc(C(F)(F)F)cc(Cl)c1F)C(F)(F)F (stereo not drawn)",
    "REPORTED_MEASUREMENT": "activity as agonists"
  },
  {
    "COMPOUND": "CC(C)(CC(O)(Cc1ccc(C#N)cc1Cl)C(F)(F)F)c1ccc2ccccc2c1 (stereo not drawn)",
    "REPORTED_MEASUREMENT": "activity as agonists"
  },
  {
    "COMPOUND": "CC(C)(CC(O)(Cc1ccc(C#N)cc1Cl)C(F)(F)F)c1ccccc1C(F)(F)F (stereo not drawn)",
    "REPORTED_MEASUREMENT": "activity as agonists"
  }
]

Consider the compound Cc1cc(C)c(C#N)c(CC(O)(CC(C)(C)c2cc(F)ccc2O)C(F)(F)F)c1 (stereo not drawn) . State its measured activity as agonists of the glucocorticoid receptor function. activity as agonists
